# System: OVCAR8
# ASSAY_EXPLANATION: drug sensitivity score (DSS) from 5-point dose-response viability curve (DSS (area-under-curve based score)); higher = more sensitive (stronger growth inhibition or killing); extreme values may be limits of the assay
# COND: exposure time: 72 h; concentration range: 5 concentrations over 10,000-fold range
RESULT_TYPE: drug sensitivity score

COMPOUND	RESULT_TYPE	ENDPOINT_RESULT
NC(=O)c1cccc(-c2cccc(OC(=O)NC3CCCCC3)c2)c1	drug sensitivity score	0
COc1cc(C(=O)O)ccc1NC(=O)[C@@H]1N[C@@H](CC(C)(C)C)[C@](C#N)(c2ccc(Cl)cc2F)[C@H]1c1cccc(Cl)c1F	drug sensitivity score	3.3
Cn1cc(CNCC2CCN(c3ncc(C(=O)NO)cn3)CC2)c2ccccc21	drug sensitivity score	18.6
c1cn2cc(-c3ccc4cn[nH]c4c3)nc(Nc3ccc(N4CCOCC4)cc3)c2n1	drug sensitivity score	1.7
CCc1c2c(nc3ccc(O)cc13)-c1cc3c(c(=O)n1C2)COC(=O)[C@]3(O)CC	drug sensitivity score	28.6
CCN(CC)CCCC(C)Nc1c2ccc(Cl)cc2nc2ccc(OC)cc12 (configuration not stated)	drug sensitivity score	12.1
CON(C)C(=O)N1N=C(c2cc(F)ccc2F)S[C@@]1(CCCN)c1ccccc1	drug sensitivity score	17.7

---

# Test system: OV90
# ASSAY_EXPLANATION: drug sensitivity score (DSS) from 5-point dose-response viability curve (DSS (area-under-curve based score)); higher = more sensitive (stronger growth inhibition or killing); extreme values may be limits of the assay
# COND: exposure time: 72 h; concentration range: 5 concentrations over 10,000-fold range
Tick YES if drug sensitivity score is 0.3 or greater. Tick NO if drug sensitivity score is less than 0.3.

COMPOUND	GROUP_LABEL
CC[C@@H]1CN(C(=O)NCC(F)(F)F)C[C@@H]1c1cnc2cnc3[nH]ccc3n12 [Upadacitinib]	YES
CCCS(=O)(=O)Nc1ccc(F)c(C(=O)c2c[nH]c3ncc(-c4ccc(Cl)cc4)cc23)c1F [Vemurafenib]	NO
COc1ccc(CCc2nc3cc(-c4c(C)noc4C)ccc3n2C[C@H](C)N2CCOCC2)cc1Cl [SGC-CBP30]	YES
CC(C)(C#N)c1cc(Cn2cncn2)cc(C(C)(C)C#N)c1 [Anastrozole]	NO
Nc1cc(F)ccc1NC(=O)c1ccc(CNC(=O)/C=C/c2cccnc2)cc1 [Tucidinostat]	YES

---

# Tested on: OV90
# ASSAY_EXPLANATION: drug sensitivity score (DSS) from 5-point dose-response viability curve (DSS (area-under-curve based score)); higher = more sensitive (stronger growth inhibition or killing); extreme values may be limits of the assay
# COND: exposure time: 72 h; concentration range: 5 concentrations over 10,000-fold range

MOLECULE	drug sensitivity score
COc1ccc(Cn2ccc3ccc(C(=O)NO)cc32)cc1	1.8
CC(C)(O)CNc1nc(Nc2ccnc(C(F)(F)F)c2)nc(-c2cccc(C(F)(F)F)n2)n1	0
COc1cc(N2CCC(N3CCN(C)CC3)CC2)ccc1Nc1ncc(Cl)c(Nc2ccccc2P(C)(C)=O)n1	4
O=C(c1cccc(Cl)c1F)N1CCN(Cc2cccc(Nc3nccs3)n2)CC1	0.5
CC(=O)O[C@H]1C(=O)[C@@]2(C)[C@H]([C@H](OC(=O)c3ccccc3)[C@]3(O)C[C@H](OC(=O)[C@H](O)[C@@H](NC(=O)c4ccccc4)c4ccccc4)C(C)=C1C3(C)C)[C@]1(OC(C)=O)CO[C@@H]1C[C@@H]2O	14.9
Cc1ccc(-n2nc(C(C)(C)C)cc2NC(=O)Nc2ccc(OCCN3CCOCC3)c3ccccc23)cc1	1.5
CCn1c(-c2nonc2N)nc2cnc(Oc3cccc(NC(=O)c4ccc(OCCN5CCOCC5)cc4)c3)cc21	5.1
COc1cc2nccc(Oc3ccc(NC(=O)C4(C(=O)Nc5ccc(F)cc5)CC4)cc3)c2cc1OC [Cabozantinib]	4.5

---

# Tested on: OVCAR4
# ASSAY_EXPLANATION: drug sensitivity score (DSS) from 5-point dose-response viability curve (DSS (area-under-curve based score)); higher = more sensitive (stronger growth inhibition or killing); extreme values may be limits of the assay
# COND: exposure time: 72 h; concentration range: 5 concentrations over 10,000-fold range
RESULT_TYPE: drug sensitivity score

COMPOUND	ENDPOINT_RESULT
Cn1cncc1[C@@](N)(c1ccc(Cl)cc1)c1ccc2c(c1)c(-c1cccc(Cl)c1)cc(=O)n2C	4.7
C[C@]1(O)C[C@@H](c2nc(-c3ccc4ccc(-c5ccccc5)nc4c3)c3c(N)nccn32)C1	0
COc1cccc2c1c(O)c(C(=O)N(C)c1ccc(C(F)(F)F)cc1)c(=O)n2C	1.9
CCCCCOC(=O)Nc1nc(=O)n([C@@H]2O[C@H](C)[C@@H](O)[C@H]2O)cc1F	0
CC1(C)NC(=O)N(c2ccc([N+](=O)[O-])c(C(F)(F)F)c2)C1=O [Nilutamide]	0

---

# Tested on: CAOV3
# ASSAY_EXPLANATION: drug sensitivity score (DSS) from 5-point dose-response viability curve (DSS (area-under-curve based score)); higher = more sensitive (stronger growth inhibition or killing); extreme values may be limits of the assay
# COND: exposure time: 72 h; concentration range: 5 concentrations over 10,000-fold range
Here the recorded drug sensitivity score is given for each entry.
RESULT_TYPE: drug sensitivity score

COMPOUND	SUBJECT_OF_TEST	ENDPOINT_RESULT
Cc1c(N)nc([C@H](CC(N)=O)NC[C@H](N)C(N)=O)nc1C(=O)N[C@H](C(=O)N[C@H](C)[C@@H](O)[C@H](C)C(=O)N[C@H](C(=O)NCCc1nc(-c2nc(C(=O)NCCC[S+](C)C)cs2)cs1)[C@@H](C)O)[C@@H](OC1OC(CO)C(O)C(O)C1OC1OC(CO)C(O)C(OC(N)=O)C1O)c1cnc[nH]1 (stereo partly specified) [Bleomycin]	CAOV3	2.2
Cc1cc(F)c(C(=O)Nc2cccc(-c3nncn3C(C)C)n2)cc1-n1cnc(C2CC2)c1 [Selonsertib]	CAOV3	0
NS(=O)(=O)NCCNc1nonc1/C(=N/O)Nc1ccc(F)c(Br)c1 [Epacadostat]	CAOV3	0
CC(C)C[C@H](NC(=O)[C@@H](COC(C)(C)C)NC(=O)[C@H](Cc1ccc(O)cc1)NC(=O)[C@H](CO)NC(=O)[C@H](Cc1c[nH]c2ccccc12)NC(=O)[C@H](Cc1cnc[nH]1)NC(=O)[C@@H]1CCC(=O)N1)C(=O)N[C@@H](CCCNC(=N)N)C(=O)N1CCC[C@H]1C(=O)NNC(N)=O [Goserelin]	CAOV3	0
COCCNCc1ccc(-c2cc3nccc(Oc4ccc(NC(=O)C5(C(=O)Nc6ccc(F)cc6)CC5)cc4F)c3s2)nc1 [Sitravatinib]	CAOV3	1.9
CN(C)Cc1c(C(=O)NCCOc2ccc(C(=O)NO)cc2)oc2ccccc12 [Abexinostat]	CAOV3	13.7
CC1=C(/C=C/C(C)=C/C=C/C(C)=C/C(=O)O)C(C)(C)CCC1 [Tretinoin]	CAOV3	0
Cc1ccc(NS(=O)(=O)c2cccc(C#N)c2)c2[nH]cc(C#N)c12 [E7820]	CAOV3	4.8
CC(=O)c1cc2c(o1)C(=O)c1ccccc1C2=O [Napabucasin]	CAOV3	18.2
C[C@H]1O[C@@H](O[C@H]2[C@@H](O)C[C@H](O[C@H]3[C@@H](O)C[C@H](O[C@H]4CC[C@@]5(C)[C@H](CC[C@@H]6[C@@H]5C[C@@H](O)[C@]5(C)[C@@H](C7=CC(=O)OC7)CC[C@]65O)C4)O[C@@H]3C)O[C@@H]2C)C[C@H](O)[C@@H]1O [Digoxin]	CAOV3	6.2
Cc1ncc(-c2ccnc(Nc3ccc(S(C)(=O)=O)cc3)n2)n1C(C)C [AZD-5438]	CAOV3	4.4
CCCCCCCCCCCCCCCCCCOP(=O)([O-])OC1CC[N+](C)(C)CC1 [Perifosine]	CAOV3	0
COC(=O)c1ccc([C@H]2c3[nH]c4ccccc4c3C[C@H](C(=O)OC)N2C(=O)CCl)cc1 [RSL3]	CAOV3	0
CC(C)(C)c1cnc(CSc2cnc(NC(=O)C3CCNCC3)s2)o1 [SNS-032]	CAOV3	16.2
CN(C)CCCOc1ccc(-c2ccc3ncc4c(c3c2)n(C2CCOCC2)c(=O)n4C)cn1 [AZD0156]	CAOV3	1.2
CCCCNc1ncc(C(=O)NCc2ccc(-n3ccnc3)cc2)c(NC2CCC(O)CC2)n1 (stereo unspecified) [UNC2881]	CAOV3	0.2
COc1cccc2c1c(O)c(C(=O)N(C)c1ccc(C(F)(F)F)cc1)c(=O)n2C [Tasquinimod]	CAOV3	0
Cc1ccc(Nc2nccc(N(C)c3ccc4c(C)n(C)nc4c3)n2)cc1S(N)(=O)=O [Pazopanib]	CAOV3	0
CC(C)(C)c1cc(NC(=O)Nc2ccc(-c3cn4c(n3)sc3cc(OCCN5CCOCC5)ccc34)cc2)no1 [Quizartinib]	CAOV3	0
CC(C)Cn1cnc2c(N)nc3ccccc3c21 [Imiquimod]	CAOV3	0
CCNCCS(=O)(=O)NC[C@@]1(c2ccccc2)SC(NC(=O)C(C)(C)C)=NN1C(=O)C(C)(C)C [Litronesib]	CAOV3	23.2
